- Tested on: Staphylococcus aureus
- protocol.text: Antimicrobial activity against TetK multidrug efflux pump possessing Staphylococcus aureus XU-212 by standard microdilution method
- Assay type: functional
measure: MIC

State the recorded MIC for every item in the following list.
1. CCCCC[C@H]1CCCCCCCCCC(=O)O[C@H]2[C@H](O[C@H]3[C@H](O[C@H]4[C@H](O1)O[C@H](C)[C@H](O)[C@@H]4O)O[C@H](CO)[C@@H](O)[C@@H]3O)O[C@H](C)[C@@H](O)[C@@H]2O
2. CCCCC[C@H]1CCCCCCCCCC(=O)O[C@@H]2[C@@H](O[C@@H]3O[C@H](C)[C@@H](OC(=O)[C@@H](C)CC)[C@H](O)[C@H]3O)[C@H](C)O[C@@H](O[C@H]3[C@H](O[C@H]4[C@H](O1)O[C@H](C)[C@@H](O)[C@@H]4O)O[C@H](COC(=O)[C@H](C)[C@@H](C)O)[C@@H](O)[C@@H]3O)[C@@H]2OC(=O)[C@@H](C)CC
3. CCCCC[C@H](CCCCCCCCCC(=O)OC[C@H]1O[C@H]2O[C@H]3[C@H](O[C@@H](CCCCC)CCCCCCCCCC(=O)O[C@H]4[C@H](O[C@@H]2[C@@H](O)[C@@H]1O)O[C@H](C)[C@@H](O)[C@@H]4O)O[C@H](C)[C@H](O)[C@@H]3O)O[C@@H]1O[C@H](C)[C@H](O)[C@H](O)[C@H]1O[C@@H]1O[C@H](CO)[C@@H](O)[C@H](O)[C@H]1O[C@@H]1O[C@H](C)[C@@H](O)[C@H](O)[C@H]1O

1. > 512 µg/mL
2. > 512 µg/mL
3. > 256 µg/mL
